# method.notes: Parallel artificial membrane permeability assay (PAMPA)
# Assay type: in vitro ADME
# assay.context: PAMPA, S1 Data; read-out: PAMPA Pe
Classes by Papp at 5 h, 10 μM: label 0 (below 5 ×10⁻⁶ cm/s), label 1 (5 ×10⁻⁶ cm/s to below 10 ×10⁻⁶ cm/s), label 2 (10 ×10⁻⁶ cm/s or more)

GET /class?item= Cn1nccc1C(=O)Nc1nc2ccc(C#N)cc2n1C1CCOCC1 [Compound 32]
label 2

GET /class?item= O=C(Cc1ccc(F)cc1)Nc1nc2cc(F)ccc2n1C1CCNCC1 [Compound 25]
label 0

GET /class?item= CCCn1c(NC(=O)Cc2ccc(F)cc2)nc2ccc(C#N)cc21 [Compound 8]
label 2

GET /class?item= CC(C)(C)n1c(NC(=O)Cc2ccc(F)cc2)nc2cc(F)ccc21 [Compound 19]
label 1

GET /class?item= N#Cc1ccc2nc(NC(=O)c3ccc(C(F)(F)F)nc3)n(CC(F)(F)F)c2c1 [Compound 45]
label 1

GET /class?item= CCCn1c(NC(=O)Cc2ccc(F)cc2)nc2ccccc21 [Compound 2, CCCn1c(nc2c1cccc2)NC(Cc3ccc(cc3)F)=O]
label 1

GET /class?item= CC(C)(C)Cn1c(NC(=O)c2ccccn2)nc2ccc(C#N)cc21 [Compound 40]
label 0

GET /class?item= Cn1nccc1C(=O)Nc1nc2cccnc2n1CC(C)(C)C [Compound 54]
label 2

GET /class?item= N#Cc1ccc2nc(NC(=O)c3cnc(C(F)(F)F)nc3)n(CC(F)(F)F)c2c1 [Compound 46]
label 0

GET /class?item= CC(C)(C)Cn1c(NC(=O)c2ccn[nH]2)nc2ccc(C#N)cc21 [Compound 34]
label 2

GET /class?item= N#Cc1ccc2nc(NC(=O)c3ccnc(C(F)(F)F)c3)n(CC(F)(F)F)c2c1 [Compound 44]
label 0

GET /class?item= Cn1nccc1C(=O)Nc1nc2ccc(C#N)cc2n1C1CC1 [Compound 31, O=C(c1ccnn1C)Nc2nc(ccc(C#N)c3)c3n2C4CC4]
label 2

GET /class?item= Cn1nc(C(F)(F)F)cc1C(=O)Nc1nc2ccc(C#N)cc2n1CC(F)(F)F [Compound 39]
label 0

GET /class?item= Cn1nccc1C(=O)Nc1nc2ccc(C#N)cc2n1CC(C)(C)C [Compound 29]
label 1

GET /class?item= CC(C)(C)Cn1c(NC(=O)c2cccnc2)nc2ccc(C#N)cc21 [Compound 41]
label 2

GET /class?item= O=C(Cc1ccc(Cl)cc1)Nc1nc2cc(F)ccc2[nH]1 [Compound 18, Fc1ccc([nH]c(NC(Cc2ccc(Cl)cc2)=O)n3)c3c1]
label 1

GET /class?item= COCCn1c(NC(=O)c2ccnn2C)nc2ccc(C#N)cc21 [Compound 50, O=C(c1ccnn1C)Nc2nc(ccc(C#N)c3)c3n2CCOC]
label 2

---

# method.notes: Experimental distribution coefficient (eLogD)
# Format: physicochemical
# assay.context: reverse-phase HPLC retention (Ascentis RP-Amide column); experimental, pH 7.4
# Protocol: To determine the lipophilicity of the compounds, a methodology based on the retention time of molecules in reverse stationary phase (Ascentis RP-Amide HPLC column) was used. The chromatogram was obtained using LC-MS/MS. Test compounds were prepared at 1.0 μg/mL by adding the stock solution at (1:1) mobile phases A:B + internal standard at 200nM (A: 5% methanol in 10mM ammonium acetate pH 7.4, B: 100% methanol), DMSO concentration must be lower than 2%. […]
Can you tell me chromatographic logD for the items I'm about to list?
Please give the numeric answer without any surrounding text.

Looking up CCCn1c(NC(=O)Cc2ccc(Cl)cc2)nc2ccccc21 [Compound 1] , I found its chromatographic logD recorded as 4.6

Looking up CC(C)(C)Cn1c(NC(=O)c2ccn(CCO)n2)nc2ccc(C#N)cc21 [Compound 38] , I found its chromatographic logD recorded as 4

Looking up CC(C)(C)Cn1c(NC(=O)Cc2ccc(C(F)(F)F)cc2)nc2ccccc21 [Compound 20] , I found its chromatographic logD recorded as 4.9

Looking up CCCn1c(NC(=O)Cc2ccc(F)cc2)nc2c(F)cccc21 [Compound 5, Fc1cccc2c1nc(NC(=O)Cc3ccc(F)cc3)n2CCC] , I found its chromatographic logD recorded as 3.6

Looking up O=C(Cc1ccc(Cl)cc1)Nc1nc2cc(F)ccc2[nH]1 [Compound 18, Fc1ccc([nH]c(NC(Cc2ccc(Cl)cc2)=O)n3)c3c1] , I found its chromatographic logD recorded as 3.9

Looking up Cn1nccc1C(=O)Nc1nc2ccc(C#N)cc2n1C1CCOCC1 [Compound 32] , I found its chromatographic logD recorded as 2.3

Looking up CC(C)(C)Cn1c(NC(=O)c2ccccn2)nc2ccc(C#N)cc21 [Compound 40] , I found its chromatographic logD recorded as 4

Looking up Cn1nccc1C(=O)Nc1nc2cccnc2n1CC(C)(C)C [Compound 54] , I found its chromatographic logD recorded as 4

Looking up CC(C)(C)n1c(NC(=O)Cc2ccc(F)cc2)nc2cc(F)ccc21 [Compound 19] , I found its chromatographic logD recorded as 4
